The measured values listed here are drawn from patent US20110045101A1.

System: Septoria nodorum
protocolDescription: Test F: wheat glume blotch on wheat seedlings, sprayed the day before inoculation, visual disease rating
Type: in vivo
reportedConditions: 200 ppm; 100 = 100% disease control, 0 = no control
Record form. Attribute: Test F disease control rating. Fill in for each entry.
Number plus unit, in that order.

Quote Septoria nodorum Test F disease control rating for entry Cc1ccc(-n2c(Cl)nc(Cl)c2-c2c(F)cccc2Cl)cc1 . 0%

Quote Septoria nodorum Test F disease control rating for entry Cc1ncn(-c2ccc(Cl)c(F)c2)c1-c1ccncc1 . 0%

Quote Septoria nodorum Test F disease control rating for entry Cc1ccc(-n2c(Br)nc(Cl)c2-c2c(F)ccc(F)c2Cl)cc1 . 0%

Quote Septoria nodorum Test F disease control rating for entry Fc1ccc(-n2c(Br)nc(Cl)c2-c2c(F)cc(F)cc2F)cc1 . 69%

Quote Septoria nodorum Test F disease control rating for entry Cc1nc(Cl)c(-c2c(F)ccc(F)c2F)n1-c1ccc(Cl)c(F)c1 . 98%

Quote Septoria nodorum Test F disease control rating for entry COc1cc(F)c(-c2c(C)nc(Cl)n2-c2ccc(Cl)c(F)c2)c(F)c1 . 100%
